# study target: Torsin-1A-interacting protein 1 (Homo sapiens)
# method: LAP1 binders from COS7 cell lysate, primary screen, small-molecule microarray, 635/667 nm fluorescence (AID 1116)
# condition set: COS7-hLAP1 lysate binding, 635 nm fluorescence, higher = more signal
value kind: composite z-score

INSERT INTO measurements (compound, value_kind, value_measured) VALUES
  ('COc1ccc(C(O)C2C=CC3C(=O)N(C)C(=O)C3N2N2CCCCC2)cc1OCc1ccccc1 (stereo not drawn)', 'composite z-score', 0.68),
  ('C=CCC(OC(C)=O)[C@@H]1[C@@H](N(Cc2cccc3ccccc23)C(=O)c2ccc(C)cc2)c2cc(OCCCO)ccc2N1C(=O)c1ccc(-c2ccccc2)cc1 (stereo partly drawn)', 'composite z-score', -0.144),
  ('O=C1NC(=O)C2C1C=CC(C(O)C=Cc1ccc([N+](=O)[O-])cc1)N2Nc1ccccn1 (stereo not drawn)', 'composite z-score', 1.45),
  ('CO[C@H]1COC(=O)CC=C[C@H](C)COC(=O)[C@@H](OCc2ccccc2)C=C[C@@H]1C', 'composite z-score', 0.237),
  ('CSCC[C@@H]1NC(=O)CC=C[C@@H](C)COC(=O)[C@H](CCSC)NC(=O)CC=C[C@@H](C)COC1=O', 'composite z-score', -0.242),
  ('CO[C@H]1O[C@H](CO)[C@@H](OC(=O)Nc2ccccc2)[C@H](OC(=O)Nc2ccc3c(c2)OCO3)[C@@H]1OC(=O)Nc1ccc2c(c1)OCO2', 'composite z-score', 1.99),
  ('N#Cc1ccc(NN2C(C(O)c3ccc(I)cc3)C=CC3C(=O)N(c4ccccc4)C(=O)C32)cc1 (stereo not drawn)', 'composite z-score', 0.0108),
  ('Cc1ccc(S[C@]2(C(=O)NC(C)C)CC(=O)N(C3Cc4ccccc4C3)[C@@H]2c2ccc(CO)cc2)cc1', 'composite z-score', 1.52);

* * *

Item-by-item account of composite z-score
# Test system: Sam68 (KHDRBS1)
# method: Sam68 small-molecule binders, primary screen, biochemical, small-molecule microarray, 635 nm fluorescence (AID 1125);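 note: score merges 667 nm channel intensity with signal to noise over triplicate slides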
# condition set: small-molecule microarray binding, higher = more signal
value kind: composite z-score

INSERT INTO assay_data (compound, study_target, value_measured) VALUES
  ('CO[C@H]1COC(=O)[C@H](CCSC)NC(=O)CC=C[C@@H](C)COC(=O)[C@@H](OCc2ccccc2)C=C[C@@H]1C', 'Sam68 (KHDRBS1)', 0.51),
  ('COCCOC(=O)N1C(=O)[C@@]2(c3ccccc31)[C@H](C(=O)N1CCc3cc(OC)c(OC)cc3C1)[C@H]1C(=O)O[C@H](c3ccccc3)[C@H](c3ccccc3)N1[C@@H]2c1ccccc1OCCO', 'Sam68 (KHDRBS1)', 1.3),
  ('O=C1O[C@@H](c2ccccc2)[C@@H](c2ccccc2)N2[C@@H](c3ccc(OCCO)cc3)[C@]3(C(=O)Nc4ccc(C#CCCO)cc43)[C@@H](C(=O)N3CCN(c4ncccn4)CC3)[C@H]12', 'Sam68 (KHDRBS1)', 1.32),
  ('COc1cccc([C@H]2N[C@H](C(=O)O)CC[C@@H]2C)c1', 'Sam68 (KHDRBS1)', 0.0672),
  ('C[N+](C)(C)CCCCNC(=O)[C@H]1C[C@H]2C(=O)NCC(=O)N2[C@H]1c1cccc(OCCO)c1', 'Sam68 (KHDRBS1)', 1.05),
  ('C=C(C(=O)CC[C@H](OC(=O)c1ccccc1-c1ccccc1C(=O)O)c1ccc(CO)o1)C(C)C', 'Sam68 (KHDRBS1)', 1.26),
  ('N#Cc1ccc(NN2C(C(O)CCc3ccccc3)C=CC3C(=O)N(c4ccccc4)C(=O)C32)cc1 (configuration not stated)', 'Sam68 (KHDRBS1)', 0.924);
